- procedureText: Portal vein versus systemic pharmacokinetics in hepatic portal vein cannulated CD(SD) rats
- Type: in vivo
- conditionInfo: male, rat, plasma (systemic blood), Peripheral bleed (retro-orbital sinus), 10 mg/kg oral
propertyLabel: Tmax

INSERT INTO assay_data (entrysmiles, testvalue) VALUES
  ('N#Cc1ccc(CCNC(=O)[C@@H]2CCN2c2cc(N3CCC(CCNC(=O)NCCC(=O)O)CC3)nc(C(F)(F)F)n2)cc1', '15 to 60 min');

====

- procedureText: Pharmacokinetic profile in mice after oral gavage
- Type: in vivo, mouse
- conditionInfo: mouse; fasted male Hilltop mice, 10 mg/kg oral gavage, plasma; read-out: Cmax
So basically, if Cmax comes in under 3 ng/mL it's 1.0, and if it's 3 ng/mL or more it's 0.0.

INSERT INTO assay_data (entrysmiles, classassignment) VALUES
  ('N#Cc1ccc(CCNC(=O)[C@@H]2CCCN2c2cc(N3CCC(CCNC(=O)NCCS(N)(=O)=O)CC3)nc(C(F)(F)F)n2)cc1', 1.0),
  ('N#Cc1ccc(CCNC(=O)[C@@H]2CCCN2c2cc(N3CCC(CCCC(=O)NCCCS(=O)(=O)O)CC3)nc(C(F)(F)F)n2)cc1', 1.0),
  ('N#Cc1ccc(CCNC(=O)[C@@H]2CCN2c2cc(N3CCC(CCNC(=O)NCCNC(=N)N)CC3)nc(C(F)(F)F)n2)cc1', 0.0),
  ('N#Cc1ccc(CCNC(=O)[C@@H]2CCN2c2cc(N3CCC(CCNC(=O)NCCS(N)(=O)=O)CC3)nc(C(F)(F)F)n2)cc1', 0.0),
  ('CN(C)CCC1CCN(c2cc(N3CCC[C@H]3C(=O)NCCc3ccc(C(F)(F)F)cc3)nc(C(F)(F)F)n2)CC1', 0.0),
  ('O=C(O)CCCC1CCN(c2cc(N3CCC[C@H]3C(=O)NCCc3ccc(C(F)(F)F)cc3)nc(C(F)(F)F)n2)CC1', 0.0);
